Quick reference: Kp of the listed items.
assay: Ratio of drug level in brain to plasma in Sprague-Dawley rat at 10 mg/kg, po; format: ADME, organism-based; parameters: dose 10 mg/kg, route oral
Property Name: Kp

sample_smiles=Cn1ncc2cc(Cn3cc(C(=O)O)c(=O)c4c(F)cccc43)ccc21 observed_result=0.04
sample_smiles=O=C(O)c1cn(Cc2ccc3c(c2)OCCO3)c2cccc(F)c2c1=O observed_result=0.15
sample_smiles=O=C(O)c1cn(Cc2ccc3ccccc3c2)c2cccc(F)c2c1=O observed_result=0.26

---

test system: Brain; assay: Drug concentration in Sprague-Dawley rat barin at 10 mg/kg, po; format: ADME, organism-based; set-up: dose 10 mg/kg, route oral; conditions: in vivo, read-out: Drug uptake
Property Name: concentration (nM)

sample_smiles=Cn1ncc2cc(Cn3cc(C(=O)O)c(=O)c4c(F)cccc43)ccc21 property_name=concentration observed_result=538
sample_smiles=O=C(O)c1cn(Cc2ccc3ccccc3c2)c2cccc(F)c2c1=O property_name=concentration observed_result=178
sample_smiles=O=C(O)c1cn(Cc2ccc3c(c2)OCCO3)c2cccc(F)c2c1=O property_name=concentration observed_result=577

---

system: Plasma; assay: Plasma concentration in Sprague-Dawley rat at 10 mg/kg, po; assay type: ADME, organism-based; design: dose 10 mg/kg, route oral; conditions: in vivo
Property Name: concentration (µM)

sample_smiles=O=C(O)c1cn(Cc2ccc3ccccc3c2)c2cccc(F)c2c1=O property_name=concentration observed_result=0.676
sample_smiles=O=C(O)c1cn(Cc2ccc3c(c2)OCCO3)c2cccc(F)c2c1=O property_name=concentration observed_result=3.7
sample_smiles=Cn1ncc2cc(Cn3cc(C(=O)O)c(=O)c4c(F)cccc43)ccc21 property_name=concentration observed_result=13.2

---

Recorded measurements of log10 IP, one per entry
target: Muscarinic acetylcholine receptor M1 (Homo sapiens) (UniProt P11229); assay: Positive allosteric modulation of human muscarinic M1 receptor expressed in CHO cells assessed as effect on acetylcholine-induced calcium mobilization by FLIPR assay; assay type: functional, cell-based
Sequence (P11229 whole entry): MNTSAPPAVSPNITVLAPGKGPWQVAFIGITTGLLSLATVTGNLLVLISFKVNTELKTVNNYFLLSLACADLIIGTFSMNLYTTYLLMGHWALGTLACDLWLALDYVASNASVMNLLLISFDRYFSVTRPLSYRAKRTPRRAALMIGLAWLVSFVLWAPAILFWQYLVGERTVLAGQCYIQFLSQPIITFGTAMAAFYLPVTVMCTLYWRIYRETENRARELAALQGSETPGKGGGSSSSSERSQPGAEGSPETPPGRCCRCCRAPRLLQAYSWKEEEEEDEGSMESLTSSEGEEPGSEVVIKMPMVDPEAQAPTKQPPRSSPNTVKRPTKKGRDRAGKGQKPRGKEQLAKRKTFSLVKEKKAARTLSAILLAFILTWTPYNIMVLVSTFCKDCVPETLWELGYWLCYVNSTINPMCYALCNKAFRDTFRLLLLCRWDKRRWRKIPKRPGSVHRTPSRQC
Property Name: log10 IP (log10 of the value in nM)

sample_smiles=O=C(O)c1cn(Cc2ccc3[nH]c(=O)[nH]c3c2)c2cccc(F)c2c1=O property_name="log10 IP" observed_result=2.79
sample_smiles=O=C(O)c1cn(Cc2nc3ccccc3s2)c2cccc(F)c2c1=O property_name="log10 IP" observed_result=3.26
sample_smiles=Cn1cc2cc(Cn3cc(C(=O)O)c(=O)c4c(F)cccc43)ccc2n1 property_name="log10 IP" observed_result=2.15
sample_smiles=CN1CCN(C)c2cc(Cn3cc(C(=O)O)c(=O)c4c(F)cccc43)ccc21 property_name="log10 IP" observed_result=3.58
sample_smiles=COc1cccc(/C=C/Cn2cc(C(=O)O)c(=O)c3cccc(F)c32)c1 property_name="log10 IP" observed_result=3.15
sample_smiles=O=C(O)c1cn(C/C=C/c2cccc(F)c2)c2c(F)cccc2c1=O property_name="log10 IP" observed_result=2.57
sample_smiles=O=C(O)c1cn(C/C=C/c2ccccc2)c2c(F)cccc2c1=O property_name="log10 IP" observed_result=2.43
sample_smiles=Cc1cccc(/C=C/Cn2cc(C(=O)O)c(=O)c3cccc(F)c32)c1 property_name="log10 IP" observed_result=2.40
